B1: Hairpin Ribozyme (parent)
chain: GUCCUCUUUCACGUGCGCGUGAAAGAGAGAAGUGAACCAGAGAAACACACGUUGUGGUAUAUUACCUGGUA

- Variants of: B1
- experiment-description: self-cleavage, relative activity (ratio to wild type); higher = more cleavage; co-transcriptional
Give measured self-cleavage for each item. Keep answers brief.
Answers are plain numbers.

Given the variant G19A C37G , what is its reported self-cleavage?
0.188

Could you do the same for A44U A45G , please?
0.102

State recorded self-cleavage for all listed variants.
1. G13C A61U
2. C6G G29U
3. U5G G68C
4. C6A A39C
5. U63G U67C

1. 0.161
2. 0.0829
3. 0
4. 0.436
5. 0.149

Each variant below has a reported value. Please supply its self-cleavage.
1. G17A A45U
2. U55A C66A
3. A44C U63C
4. C4A A26U
5. C18A U63C
6. G27U C37G

1: 0.13; 2: 0.188; 3: 0.172; 4: 0.228; 5: 0.0808; 6: 0.109

Consider the following items and state reported self-cleavage for each.
1. U2C A43G
2. U7G C50A
3. G1U A23U
4. C10U C46A
5. A44C C50A
6. A36U A45G

1. 0.167
2. 0.167
3. 0.11
4. 0.15
5. 0.0943
6. 0.106

State recorded self-cleavage for all listed variants.
1. C6U G56U
2. A35U G69A
3. A30U G51U
4. C10A G69U
5. A49G C65A
6. U53G A71C
7. C18U A45C
8. U14G A36C

0.144
0.184
0.193
0.14
0.42
1.29
0.218
0.729

Please go through the list and note self-cleavage for each variant.
1. A43U A64C
2. U7G A44C
3. A30G C38A
4. A47C C48U
5. A23C G25A
6. C48U A59U
7. U14G A30G
8. A23U A36G

0.161
0.195
0.0519
0.0858
0.235
0.0991
0.0762
0.681

Provide self-cleavage values for the following items, in order.
1. G1U U63G
2. G51U G56A
3. A41C A45C
4. C6U G42A
5. A43U G68U
6. G51U G69U
7. A11U A26G

0.0703
0.153
0.11
0.275
0.223
0.287
0.751

Go through the items and report each one's self-cleavage.
1. U2C A45C
2. G19U G32A
3. G25U A45U
4. G27A G40A

1. 0.0982
2. 0.124
3. 0.162
4. 0.143
